Target: T1, NOD mouse SIRP-α D1 domain (mouse (NOD strain))
T1 chain: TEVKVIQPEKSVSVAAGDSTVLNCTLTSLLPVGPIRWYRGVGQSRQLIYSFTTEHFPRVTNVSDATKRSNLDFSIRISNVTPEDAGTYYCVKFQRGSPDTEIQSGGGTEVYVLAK
Test: SPR, Langmuir fit
# binarize koff: threshold 0.001 s⁻¹ inclusive, high side t, low side f

Entry S28 (scFv, V domains shown, also called clone 28) VH: DVQLVESGGGVVRPGESLRLSCAASGFSFSSNAMSWVRQAPGKGLEWVAGISASGDTYYSGSMKGRFTISRDNSKNTLYLQMNSLTAEDTAVYYCARETWNHLFDYWGLGTLVTVSS VL: ALTQPASVSANPGETVKITCSGGSDSYYYGWHQQKSPGSAPVTVIYSDDQRPPDIPSRFSGSASGSTTTLTITGVRAEDEAVYYCGGYDYSTYTNTFGAGTTLTVL : is its koff no less than 0.001 s⁻¹?
f

// repeat for S59 (scFv, V domains shown, also called clone 59) VH: DVQLVESGGGVVRPGESLRLSCAVSGFRFSSHAMSWVRQAPGKGLEWVSGISSGGDTYYVDSVKGRFTISRDNSKNTLYLQVNSLTAEDTAIYYCARETWNHLFDYWGLGTLVTVSS VL: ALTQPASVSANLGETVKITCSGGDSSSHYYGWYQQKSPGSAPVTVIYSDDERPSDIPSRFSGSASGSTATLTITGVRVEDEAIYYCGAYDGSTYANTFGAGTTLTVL and report
t

// repeat for S206 (scFv, V domains shown) VH: DVQLVESGGAVVRPGETLRLSCTASGFTFSSYAMSWVRQAPGKGLEWVSGISASGSDTYYADSVKGRSTISRDNSKNTLYLRMSSLTAEDTAVYYCARETWNHLFDYWGLGTLVTLSS VL: ALTQPASVSANPGETVKITCSGGGTSSYYGWYQQKSPGSAPVTLIHSDDKRPSDIPSRFSGSASGSTATLTITGVQAEDEAVYYCGGYDYTTYVNTFGAGTTLTVL and report
t

// repeat for S189 (scFv, V domains shown) VH: DVQLVESGGGVVRPGESLRLSCAASGFTFSSSDMNWVRQAPGEGLEWVSLISGSGEITYYADSVKGRFTISRDNSKNTLYLQMNSLRAEDTAIYYCAKENNMYRFFDYWGLGTLVTVSS VL: ETVLTQSPGTLSLSPGERATLSCRASQSVYTYLAWYQQKPGQPPRLLIHAARNRAAGIPDRFSGSGSGTEFTLTISSLQSEDFAVYYCQQYYDRPPLTFGGGTKVEIK and report
f

In the following, a different binder is considered.
Entry S27 (scFv, V domains shown, also called clone 27; scFv-Fc form of AB27) VH: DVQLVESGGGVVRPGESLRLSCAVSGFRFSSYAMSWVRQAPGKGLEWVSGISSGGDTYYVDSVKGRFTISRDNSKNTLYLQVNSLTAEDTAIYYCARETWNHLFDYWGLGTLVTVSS VL: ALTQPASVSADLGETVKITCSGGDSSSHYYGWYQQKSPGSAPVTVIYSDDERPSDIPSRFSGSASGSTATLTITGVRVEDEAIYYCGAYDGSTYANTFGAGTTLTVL : is its koff no less than 0.001 s⁻¹?
t
